Where do these numbers come from? They come from patent US5470714A.

Target: ADIFAB (Acrylodan derivatized native rat I-FABP, Lys27) (Rattus norvegicus)
Assay: biochemical
Assay type: binding
Details: normalized to oleate
value-kind: Kd relative to oleate (fold greater than oleate)

Before answering, review these 2 worked examples.
CCCCC/C=C\C/C=C\C/C=C\C/C=C\CCCC(=O)O [ARACHIDONATE, arachidonate]; ~5.8 fold
CCCCC/C=C\C/C=C\CCCCCCCC(=O)O [LINOLEATE, linoleate]; ~3.5 fold

Next:
Ask: Hello, please tell me recorded Kd relative to oleate (fold greater than oleate) for this one: CC/C=C\C/C=C\C/C=C\CCCCCCCC(=O)O [LINOLENATE, linolenate]
Result: ~8.9 fold

====

Target: ADIFAB (Acrylodan derivatized native rat I-FABP, Lys27) (Rattus norvegicus, UniProt P02693)
Sequence (P02693 2-132): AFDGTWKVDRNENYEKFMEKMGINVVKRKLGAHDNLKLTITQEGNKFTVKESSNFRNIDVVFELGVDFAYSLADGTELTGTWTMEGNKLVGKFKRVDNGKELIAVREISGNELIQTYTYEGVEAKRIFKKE
Experiment: biochemical
Assay type: binding
Settings: laurate (12:0), binding detectable but considerably weaker; read-out: Kd (shorter chain FA, bound)
pKd: −log10 of the molar value.
value-kind: pKd

Ask: Hello, please tell me recorded pKd for this one: CCCCCCCCCCCC(=O)O [laurate]
Result: < 3.70

====

Molecular target: ADIFAB (Acrylodan derivatized native rat I-FABP, Lys27) (Rattus norvegicus)
Test: biochemical
Assay type: binding
Conditions: FA-ADIFAB Dissociation Constants, Kd, no added calcium, FIG. 6A, buffer A pH 7.4
Rule for this label: Condition met means Kd is less than 2000 nM; Condition not met means Kd is at least 2000 nM.

CCCCCCCC/C=C\CCCCCCCC(=O)O [OLEATE, oleate]; Condition met
CCCCC/C=C\C/C=C\CCCCCCCC(=O)O [LINOLEATE, linoleate]; Condition met
CC/C=C\C/C=C\C/C=C\CCCCCCCC(=O)O [LINOLENATE, linolenate]; Condition not met

Ask: Would you kindly verify if Kd of CCCCCCCCCCCCCCCC(=O)O [PALMITATE, palmitate] is strictly less than 2000 nM?
Result: Condition met

Ask: Would you kindly verify if Kd of CCCCC/C=C\C/C=C\C/C=C\C/C=C\CCCC(=O)O [ARACHIDONATE, arachidonate] is strictly less than 2000 nM?
Result: Condition met
